These data points were gathered from PubChem BioAssay AID1159580.

- Test Method Notes: chemical genetic growth profiling, strain panel (AID 1159580);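 further: tested at 20 µM; growth read once vehicle control cultures reached saturation at 30 °C; 1 = growth at the plate median or of vehicle wells; lower values mean less growth of the strain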
- Cond: S. cerevisiae strains, growth OD, strain wild type, stronger effect = lower value
Screen size: about 5,500 compounds; about 2,000 (36%) were called active. Not shown: some 18% with an inconclusive outcome. Some of the results follow.
Observation Type: normalized growth
I only need the number, thanks.

Solved entries (count: 3):
Query: Given CCC(Cc1c(I)cc(I)c(N)c1I)C(=O)O (stereo not drawn) , state its recorded normalized growth.
Result: 0.999

Query: Given Nc1ccc(C(=O)NCC(=O)O)cc1 , state its recorded normalized growth.
Result: 0.995

Query: Given CC(C)NCC(O)c1ccc2ccccc2c1 (stereo not drawn) , state its recorded normalized growth.
Result: 1.01

***
Query: Given COc1ccc(-c2ccnc(SCC(=O)NCCSCc3ccco3)n2)cc1 , state its recorded normalized growth.
Result: 1

Query: Given Cc1occc(=O)c1/C=C/O , state its recorded normalized growth.
Result: 1.01

Query: Given COC(=O)c1ccc(-c2ccc(Cl)cc2)s1 , state its recorded normalized growth.
Result: 0.928

Query: Given OC[C@@H](O)[C@@H](O[C@@H]1O[C@H](CO)[C@@H](O)[C@H](O)[C@H]1O)[C@H](O)[C@@H](O)CO , state its recorded normalized growth.
Result: 1.02

Query: Given COc1ccc(OC)c(S(=O)(=O)N2CCc3cc(OC)c(OC)cc3C2C)c1 (stereo not drawn) , state its recorded normalized growth.
Result: 0.972

Query: Given O=C(CCCCCCCCCCCCC1CCCC1)Nc1ccc(S(=O)(=O)c2ccc(NC(=O)CCCCCCCCCCCCC3CCCC3)cc2)cc1 , state its recorded normalized growth.
Result: 1.01

Query: Given C[C@H]1[C@H]2CCC3C4CC=C5C[C@@H](N(C)C)CC[C@]5(C)C4CC[C@@]32CN1C (stereo partly drawn) , state its recorded normalized growth.
Result: 0.981

Query: Given C=CC(C1=CC(=O)C(OC)=CC1=O)c1ccc(OC)cc1 (stereo not drawn) , state its recorded normalized growth.
Result: 0.886

Query: Given CC1(C)C(O)CC(O)C2(C)C1CC(=O)C1(C)C2CCC2(C)C(C(=O)O)OC(=O)C3OC321 (stereo not drawn) , state its recorded normalized growth.
Result: 1.01

Query: Given CCCc1occc(=O)c1/C=C/O , state its recorded normalized growth.
Result: 0.968
